STUDY_SYSTEM: UniProt:P18762
Sequence (P18762 whole entry): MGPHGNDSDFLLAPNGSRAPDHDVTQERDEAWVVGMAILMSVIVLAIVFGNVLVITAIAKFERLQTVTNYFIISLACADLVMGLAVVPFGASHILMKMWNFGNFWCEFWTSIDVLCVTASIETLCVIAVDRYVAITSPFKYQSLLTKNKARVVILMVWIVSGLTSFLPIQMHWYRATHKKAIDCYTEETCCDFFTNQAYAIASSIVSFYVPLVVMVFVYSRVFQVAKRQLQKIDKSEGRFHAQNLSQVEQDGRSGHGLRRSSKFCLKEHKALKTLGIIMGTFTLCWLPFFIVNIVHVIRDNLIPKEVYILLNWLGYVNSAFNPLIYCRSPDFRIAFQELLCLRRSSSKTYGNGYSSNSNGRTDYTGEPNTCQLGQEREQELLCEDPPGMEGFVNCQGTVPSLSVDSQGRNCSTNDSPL
Type: binding, mice
STUDY_CONDITIONS: 28 days of administration
Method: β2-adrenergic receptor numbers were measured in asthmatic mice as follows. […] Mice were sacrificed and lung membranes were isolated as follows. […] The final pellet was suspended in 200 μL of 25 mM Tris-HCl (pH 7.4); membrane protein concentration was determined by BCA protein assay kit. […] The filters were washed three times with 250 μL of cold wash buffer (25 mM Tris-HCl, pH 7.4) and the radioactivity determined in a counter. […] Bmax is determined by nonlinear regression of the saturation binding curves.

# MOLECULE, Increased β2AR density
measured = [
    ("CC(C)(C)NCC(O)c1ccc(O)c(CO)c1 (stereo not shown)", "no"),
    ("C=CCc1ccccc1OCC(O)CNC(C)C (stereo not shown)", "no"),
]
